- Tested on: Streptococcus agalactaciae CMX 508
- Assay protocol: In vitro antibacterial activity, MIC by agar dilution
- Type: cell-based
- Condition set: BHI agar, 35-37°C, 20-24 hours, unit assumed
Where a name gives a salt, the structure may show the parent alone.
Result type: MIC values (µg/mL)

[
  {
    "Compound": "C[C@H](N)C(=O)NC1CCN(c2nc3c(-c4ccc(F)cc4F)cc(C(=O)O)c(=O)n3cc2F)C1 (stereo partly shown) [Example 167, hydrochloride]",
    "Numeric value": 6.2
  },
  {
    "Compound": "O=C(O)c1cc(-c2ccc(F)cc2F)c2nc(N3CCC(O)C3)c(F)cn2c1=O (stereo not shown) [Example 170]",
    "Numeric value": 0.78
  },
  {
    "Compound": "C[C@H]1C[C@H](N)CN1c1nc2c(-c3ccc(F)cc3F)cc(C(=O)O)c(=O)n2cc1F [Example 171, hydrochloride]",
    "Numeric value": 0.78
  },
  {
    "Compound": "CN1CCN(c2nc3c(-c4ccc(F)cc4)cc(C(=O)O)c(=O)n3cc2F)CC1 [Example 1]",
    "Numeric value": 12.5
  }
]

----------
- Test system: Micrococcus luteus ATCC 4698
- Assay protocol: In vitro antibacterial activity, MIC by agar dilution
- Type: cell-based
- Condition set: BHI agar, 35-37°C, 20-24 hours, unit assumed
Where a name gives a salt, the structure may show the parent alone.
Threshold 3 µg/mL: MIC values strictly smaller gives class 1, otherwise class 0.

[
  {
    "Compound": "CC(C)(C)OC(=O)NC1CCN(c2nc3c(-c4ccc(F)cc4F)cc(C(=O)O)c(=O)n3cc2F)C1 (stereo not drawn) [Example 160]",
    "Assigned class": "class 1"
  },
  {
    "Compound": "CCc1cc(C(=O)O)c(=O)n2ccc(N3CCNC(C)C3)cc12.Cl (stereo not drawn) [Example 64]",
    "Assigned class": "class 0"
  },
  {
    "Compound": "O=C(O)c1cn(C2CC2)c2cc(N3CCNCC3)c(F)cc2c1=O [Cntl, Ciprofloxacin, reference compound]",
    "Assigned class": "class 1"
  },
  {
    "Compound": "C[C@H](N)C(=O)NC1CCN(c2nc3c(-c4ccc(F)cc4F)cc(C(=O)O)c(=O)n3cc2F)C1 (stereo partly drawn) [Example 167, hydrochloride]",
    "Assigned class": "class 0"
  },
  {
    "Compound": "CN1CCN(c2nc3c(C4CC4)cc(C(=O)O)c(=O)n3cc2F)CC1 [Example 163]",
    "Assigned class": "class 0"
  },
  {
    "Compound": "O=C(O)c1cc(C2CC2)c2nc(N3CCNCC3)c(F)cn2c1=O [Example 164]",
    "Assigned class": "class 0"
  },
  {
    "Compound": "C[C@H](N)C(=O)N[C@@H](C)C(=O)N[C@H]1C[C@H](C)N(c2nc3c(-c4ccc(F)cc4F)cc(C(=O)O)c(=O)n3cc2F)C1 [Example 173, hydrochloride]",
    "Assigned class": "class 0"
  },
  {
    "Compound": "C[C@H](N)C(=O)N[C@@H](C)C(=O)NC1CCN(c2nc3c(-c4ccc(F)cc4F)cc(C(=O)O)c(=O)n3cc2F)C1 (stereo partly drawn) [Example 168, hydrochloride]",
    "Assigned class": "class 0"
  },
  {
    "Compound": "NC1CCN(c2nc3c(-c4ccc(F)cc4F)cc(C(=O)O)c(=O)n3cc2F)C1 (stereo not drawn) [Example 161]",
    "Assigned class": "class 0"
  },
  {
    "Compound": "O=C(O)c1cc(-c2ccc(F)cc2F)c2nc(N3CCC(O)C3)c(F)cn2c1=O (stereo not drawn) [Example 170]",
    "Assigned class": "class 1"
  },
  {
    "Compound": "CN1CCN(c2nc3c(-c4ccc(F)cc4)cc(C(=O)O)c(=O)n3cc2F)CC1 [Example 1]",
    "Assigned class": "class 0"
  },
  {
    "Compound": "C[C@H]1C[C@H](N)CN1c1nc2c(-c3ccc(F)cc3F)cc(C(=O)O)c(=O)n2cc1F [Example 171, hydrochloride]",
    "Assigned class": "class 1"
  },
  {
    "Compound": "CN1CCN(c2nc3c(-c4ccc(F)cc4F)cc(C(=O)O)c(=O)n3cc2F)CC1 [Example 159]",
    "Assigned class": "class 0"
  },
  {
    "Compound": "CCC[C@H](N)C(=O)NC1CCN(c2nc3c(-c4ccc(F)cc4F)cc(C(=O)O)c(=O)n3cc2F)C1 (stereo partly drawn) [Example 166, hydrochloride salt]",
    "Assigned class": "class 0"
  },
  {
    "Compound": "CCc1cc(C(=O)O)c(=O)n2ccc(N3CCN(C)CC3)cc12.Cl [Example 65]",
    "Assigned class": "class 0"
  }
]

Source: patent EP0527889B1
